Target: T1, Human VSIG4-L-Fc (human)
T1 construct: also called hVSIG4-L-Fc; hVSIG4-L
T1 sequence (chain, as listed by the source limits assumed): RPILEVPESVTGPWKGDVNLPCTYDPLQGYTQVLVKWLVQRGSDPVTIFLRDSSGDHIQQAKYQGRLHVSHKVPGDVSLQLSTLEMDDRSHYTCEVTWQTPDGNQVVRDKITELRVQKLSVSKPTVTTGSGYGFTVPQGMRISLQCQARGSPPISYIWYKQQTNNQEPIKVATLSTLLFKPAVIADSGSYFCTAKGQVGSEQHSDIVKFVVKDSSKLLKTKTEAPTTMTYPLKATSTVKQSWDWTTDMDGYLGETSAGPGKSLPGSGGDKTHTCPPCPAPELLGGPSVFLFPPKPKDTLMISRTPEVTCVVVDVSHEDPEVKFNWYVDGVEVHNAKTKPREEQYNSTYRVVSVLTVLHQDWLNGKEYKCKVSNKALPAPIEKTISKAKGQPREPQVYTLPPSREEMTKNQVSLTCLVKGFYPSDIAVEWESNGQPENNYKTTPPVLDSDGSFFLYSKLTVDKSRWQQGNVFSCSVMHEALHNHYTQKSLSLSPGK
Test: BLI binning on hVSIG4-L-Fc, competitor 12A12 first;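 note: normalized to binding of second antibody without first competitor antibody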
Recorded endpoint: normalized maximum binding nm shift (normalized)
Answer format: numeric, normalized implied, no suffix.

Binder	Unit info	normalized maximum binding nm shift
14D12 mouse/human chimeric IgG4 (S228P) kappa (antibody, V domains shown) VH: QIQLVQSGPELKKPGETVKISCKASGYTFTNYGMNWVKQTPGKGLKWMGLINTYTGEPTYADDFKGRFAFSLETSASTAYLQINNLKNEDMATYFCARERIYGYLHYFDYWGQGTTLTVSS VL: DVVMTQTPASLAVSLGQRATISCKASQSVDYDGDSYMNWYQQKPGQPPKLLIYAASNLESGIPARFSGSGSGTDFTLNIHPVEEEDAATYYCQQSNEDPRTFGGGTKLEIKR	normalized	0.75

Proceed to the following item.
## Task Return reported normalized maximum binding nm shift. Input binder: 15C04 mouse/human chimeric IgG4 (S228P) kappa (antibody, V domains shown) VH: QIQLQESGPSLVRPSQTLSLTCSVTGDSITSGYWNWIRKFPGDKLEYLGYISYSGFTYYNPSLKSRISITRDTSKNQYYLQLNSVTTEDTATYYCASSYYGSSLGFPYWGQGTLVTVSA VL: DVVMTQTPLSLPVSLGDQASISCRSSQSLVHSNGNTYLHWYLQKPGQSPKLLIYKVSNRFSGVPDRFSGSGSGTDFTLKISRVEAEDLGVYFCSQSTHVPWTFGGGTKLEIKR
## Result 0.82

Hey, just so you know, these numbers are from patent US20230348603A1.
